System: Tau-BiFC cells
experiment description: Cell viability (cytotoxicity) in tau-BiFC cells, count of stained nuclei
Type: cell-based
reported conditions: compounds marked *: measured at 3 μM; Forskolin-only group = 100% cell viability
Procedure: In order to select novel tau protein aggregation-inhibiting substances, tau-BiFC cell model, in which formation of tau oligomers in living cells is easily observed, was used. Tau-BiFC cells were aliquoted into a 384-well plate. […] After 48 hours, nuclei in the cells were stained using Hoechst (at a treatment concentration of 2 μg/mL), and BiFC fluorescence intensity was automatically measured using Operetta (PerkinElmer) to count stained nuclei in each well out of the entire well plate. […]
Measured Cell viability, listed per entry.
Kindly answer with a numeric value in %, unit omitted.

Worked examples, 3 compounds total:
• Cc1cc(NN=C(C#N)C#N)ccc1OCc1cc2ccccc2s1 = 118
• Cc1ccc(COc2ccc(NN=C(C#N)C#N)cc2C)cc1 = 111
• COc1cc(NN=C(C#N)C#N)ccc1OCc1nc2ccccc2[nH]1 = 106

Entry `N#CC(C#N)=NNc1ccc(OCc2cn[nH]c2)cc1` ; assay system Tau-BiFC cells; Cell viability recorded at 129

Response field Cell viability (Tau-BiFC cells) for item `COc1cc(NN=C(C#N)C#N)ccc1OCc1cc[nH]n1` : 123

Observed Cell viability, Tau-BiFC cells, `COc1cc(NN=C(C#N)C#N)ccc1OCc1cnc(C)cn1` : 115

For `COc1cc(NN=C(C#N)C#N)ccc1OCc1nc2ccccc2o1` on Tau-BiFC cells, measured Cell viability was 121

Hey, Tau-BiFC cells data for `Cc1cc(NN=C(C#N)C#N)ccc1OCc1ccc(C(F)(F)F)cc1` : Cell viability came out at 114

Reported Cell viability (Tau-BiFC cells) for entry `COc1cc(NN=C(C#N)C#N)ccc1OCc1cscn1` is 118

Record `Cc1cc(NN=C(C#N)C#N)ccc1OCc1cnccn1` / Tau-BiFC cells, Cell viability recorded as 111

Record `Cc1cc(NN=C(C#N)C#N)ccc1OCc1cscn1` / Tau-BiFC cells, Cell viability recorded as 117

Hey, Tau-BiFC cells data for `COc1cc(NN=C(C#N)C#N)ccc1OCc1ccc(C)cc1` : Cell viability came out at 106

Item CC(Oc1ccc(NN=C(C#N)C#N)cc1)c1ccc(C(F)(F)F)cc1 (centres unmarked) was tested on Tau-BiFC cells; the reported Cell viability is 123

Field Cell viability (system: Tau-BiFC cells) for entry `Cc1cc(NN=C(C#N)C#N)ccc1OCc1nc2ccccc2[nH]1` = 133

Result for `Cc1cc(NN=C(C#N)C#N)ccc1OCc1nc2ccccc2o1` , tested on Tau-BiFC cells, Cell viability: 124

Test item `Cc1cnc(COc2ccc(NN=C(C#N)C#N)cc2)cn1` ; Tau-BiFC cells; reported Cell viability was 133

----------
tgt: CYP2D6 (Homo sapiens)
Construct: human liver microsomes (0.25 mg/mL); from tissue; host or cells: human liver microsomes
Sequence (P10635 whole entry): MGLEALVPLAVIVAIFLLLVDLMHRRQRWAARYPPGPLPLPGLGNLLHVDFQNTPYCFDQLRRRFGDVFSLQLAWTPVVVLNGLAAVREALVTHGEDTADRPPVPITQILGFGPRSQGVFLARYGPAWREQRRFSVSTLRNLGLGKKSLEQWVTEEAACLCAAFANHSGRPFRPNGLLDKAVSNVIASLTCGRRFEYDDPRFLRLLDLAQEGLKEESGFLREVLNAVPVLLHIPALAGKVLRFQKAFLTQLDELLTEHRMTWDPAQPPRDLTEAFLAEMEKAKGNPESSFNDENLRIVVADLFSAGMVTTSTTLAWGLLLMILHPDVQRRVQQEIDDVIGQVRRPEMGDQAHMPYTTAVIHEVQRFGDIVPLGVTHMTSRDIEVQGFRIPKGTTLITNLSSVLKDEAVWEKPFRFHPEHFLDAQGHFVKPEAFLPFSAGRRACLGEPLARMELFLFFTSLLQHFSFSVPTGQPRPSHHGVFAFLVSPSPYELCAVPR
experiment description: Inhibitory effect on CYP coenzyme activity, human liver microsomes
Assay type: in vitro ADME
reported conditions: compound 10 μM; human liver microsomes 0.25 mg/mL; substrate dextromethorphan; 15 minutes
We use 90 as the dividing line for CYP2D6: on or above the line is Fulfilled, below is Not fulfilled.

Illustrative cases are given below, each with its answer.
- N#CC(C#N)=NNc1ccc(OCc2ncccn2)cc1: Fulfilled
- Cc1cccc(C(=O)Nc2ccc(NN=C(C#N)C#N)cn2)c1F: Not fulfilled
- Cc1cncc(NC(=O)c2ccc(NN=C(C#N)C#N)cc2)n1: Fulfilled
- Cc1cnc(C(=O)Nc2ccc(NN=C(C#N)C#N)cn2)cn1: Fulfilled
- Cc1cc(NN=C(C#N)C#N)ccc1OCc1nc2ccccc2o1: Fulfilled
- Cc1cnc(COc2ccc(NN=C(C#N)C#N)cc2)cn1: Fulfilled

Q: I'd appreciate it if you could say whether CC(Oc1ccc(NN=C(C#N)C#N)cc1)c1cccnc1 (stereo not shown) has CYP2D6 at least equal to 90.
Ans: Not fulfilled

Q: Hello, I need to know if `Cc1cc(NN=C(C#N)C#N)ccc1OCc1ncccn1` has measured CYP2D6 not below 90. Thanks!
Ans: Fulfilled

Q: Entry `N#CC(C#N)=NNc1ccc(NC(=O)c2ccc(F)cc2)nc1` : is its CYP2D6 no less than 90?
Ans: Not fulfilled
